Entries and their measured viability at 10 µM follow.
Test system: HT-29 cells (colon carcinoma)
assay.comment: MTT cell viability assay, HT-29
Assay type: cell-based
condition.summary: Homo sapiens; HT-29, 10 µM, 48 h, MTT; read-out: cell viability, percentage of live cells
# value in %; strip the unit string

For orientation, consider the following solved cases.
What measured viability at 10 µM goes with N#Cc1ccc(NC(=[Se])Nc2ccc3oc(=O)ccc3c2)cc1 [Compound 3e] ?
66.6

Look up viability at 10 µM: CCCCNC(=[Se])Nc1ccc(C#N)cc1 [Compound 4e]
60.7

Fill in the blank: the reported viability at 10 µM of COc1ccc(NC(=[Se])NCc2nccs2)cc1 [Compound 2c] is ____.
88.9

Endpoint output: viability at 10 µM of Clc1ccc(NC(=[Se])NC23CC4CC(CC(C4)C2)C3)cc1 [Compound 6d] . Value?
45.9

Entry under review: CCCCNC(=[Se])Nc1ccc(Cl)cc1 [Compound 4d] . Reported viability at 10 µM?
64.4

***
Data request, read-out viability at 10 µM, for CCCCCCNC(=[Se])Nc1ccc(Cl)cc1 [Compound 5d]
69.1

Requested field: viability at 10 µM. Item: CCCCCCNC(=[Se])Nc1ccc(C#N)cc1 [Compound 5e, N-hexyl-N´-(4-cyanophenyl)selenourea]
59.1

Any idea what its viability at 10 µM is? The compound is [Se]=C(NCc1ccco1)Nc1ccccc1 [Compound 1a]
70.4

Which viability at 10 µM is listed for COc1ccc(NC(=[Se])NC23CC4CC(CC(C4)C2)C3)cc1 [Compound 6c] ?
34.6

Tell me the measured viability at 10 µM of COc1ccc(NC(=[Se])Nc2ccc3oc(=O)ccc3c2)cc1 [Compound 3c] , please.
58.2

----------
Test system: HT-29 cells (colon carcinoma)
assay.comment: MTT cell viability assay, HT-29
Type: cell-based
condition.summary: Homo sapiens, HT-29, 48 h, read-out: IC50 HT-29 (colon)
recorded.metric: IC50 (µM)
Provide only the numeric value, understood in µM.

IC50 lookup needed for [Se]=C(Nc1ccccc1)NC12CC3CC(CC(C3)C1)C2 , thanks.
5.03

----------
Y if melting point is below 100 °C. N if not; exact matches included in N.

Could you please tell me whether melting point recorded for N#Cc1ccc(NC(=[Se])NCc2nccs2)cc1 is less than 100 °C?
N

Is melting point of COc1ccc(NC(=[Se])NCc2nccs2)cc1 strictly below 100 °C?
N

Input COc1ccc(NC(=[Se])NCc2ccco2)cc1 ; condition: melting point strictly below 100 °C. Does it hold?
N

Please state whether melting point is below 100 °C for Cc1ccc(NC(=[Se])NCc2nccs2)cc1
N

New cases:
I'd appreciate it if you could check whether N#Cc1ccc(NC(=[Se])NCc2ccco2)cc1 has melting point smaller than 100 °C.
N

Say whether its melting point is strictly beneath 100 °C. Entry: CCCCNC(=[Se])Nc1ccc(Cl)cc1
N

Given the entry CCCCNC(=[Se])Nc1ccc(C)cc1 , would its reported melting point be below 100 °C?
Y

Dear reviewer, please state whether Clc1ccc(NC(=[Se])NCc2nccs2)cc1 has melting point strictly beneath 100 °C.
N

Is 100 °C strictly greater than the compound's reported melting point? compound: CCCCCCNC(=[Se])Nc1ccc(C)cc1
Y

# TODO verify melting point < 100 °C strictly for this compound: [Se]=C(NCc1ccco1)Nc1ccccc1
N

Decide: melting point of Cc1ccc(NC(=[Se])Nc2ccc3oc(=O)ccc3c2)cc1 strictly below 100 °C?
N

----------
Tested on: HTB-54 cells (lung adenocarcinoma)
assay.comment: MTT cell viability assay, HTB-54
Format: cell-based, human
condition.summary: Homo sapiens; HTB-54, 50 µM, 48 h, MTT; read-out: cell viability, percentage of live cells
recorded.metric: viability at 50 µM (%)
Reply with just the number (in %).

What does the record list as viability at 50 µM for COc1ccc(NC(=[Se])NCc2nccs2)cc1 [Compound 2c] ?
30.3

I have this molecule here, CCCCNC(=[Se])Nc1ccc(C#N)cc1 [Compound 4e] , and I need its recorded viability at 50 µM.
29.7

// lookup viability at 50 µM for COc1ccc(NC(=[Se])NC23CC4CC(CC(C4)C2)C3)cc1 [Compound 6c]
30.9

Others:
Data request, read-out viability at 50 µM, for CCCCCCNC(=[Se])Nc1ccc(OC)cc1 [Compound 5c]
10.7

Record request: viability at 50 µM value, item COc1ccc(NC(=[Se])NCc2ccco2)cc1 [Compound 1c]
28.8

----------
System: HT-29 cells (colon carcinoma)
assay.comment: MTT cell viability assay, HT-29
Type: cell-based
condition.summary: Homo sapiens; HT-29, 10 µM, 48 h, MTT; read-out: cell viability, percentage of live cells
recorded.metric: viability at 10 µM (%)
Report as a plain number; the unit % is understood.

Example results:
Tell me the measured viability at 10 µM of Clc1ccc(NC(=[Se])NCc2ccco2)cc1 [Compound 1d] , please.
48.6

Endpoint output: viability at 10 µM of Cc1ccc(NC(=[Se])NC23CC4CC(CC(C4)C2)C3)cc1 [Compound 6b] . Value?
51.4

# query: viability at 10 µM of entry Cc1ccc(NC(=[Se])NCc2ccco2)cc1 [Compound 1b]
66.2

Which value of viability at 10 µM has been reported for COc1ccc(NC(=[Se])NCc2ccco2)cc1 [Compound 1c] in the records?
70.5

Dear colleague, I am looking for the recorded viability at 10 µM of the following molecule: N#Cc1ccc(NC(=[Se])NC23CC4CC(CC(C4)C2)C3)cc1 [Compound 6e, N´-Adamanty-N-(4-cyanophenyl)selenourea]
18.9

Form field: reported viability at 10 µM of Cc1ccc(NC(=[Se])NCc2nccs2)cc1 [Compound 2b]
88.3

Need viability at 10 µM of O=c1ccc2cc(NC(=[Se])Nc3ccccc3)ccc2o1 [Compound 3a] , thanks.
47.5

Dear colleague, I am looking for the recorded viability at 10 µM of the following molecule: CCCCCCNC(=[Se])Nc1ccc(OC)cc1 [Compound 5c]
62.6

What does the record list as viability at 10 µM for N#Cc1ccc(NC(=[Se])NCc2ccco2)cc1 [Compound 1e] ?
36.2

Let us examine a further case.
I'd like to know its viability at 10 µM. The molecule in question is O=c1ccc2cc(NC(=[Se])Nc3ccc(Cl)cc3)ccc2o1 [Compound 3d]
59.1

----------
Tested on: BEAS-2B cells (lung non-malignant derived cell line)
assay.comment: MTT cell viability assay, BEAS-2B
Type: cell-based
condition.summary: Homo sapiens, 48 h, mean ± SD
# reported pIC50; entries follow
Value format note: pIC50 is -log10 of concentration (mol/L); just state the number.

A selection of reference data follows.
If you can, please state the reported pIC50 value of Clc1ccc(NC(=[Se])NC23CC4CC(CC(C4)C2)C3)cc1 [Compound 6d] .
5.12

Looking for the measured pIC50 of COc1ccc(NC(=[Se])NC23CC4CC(CC(C4)C2)C3)cc1 [Compound 6c] , can you help?
5.33

Given Cc1ccc(NC(=[Se])NC23CC4CC(CC(C4)C2)C3)cc1 [Compound 6b] , state its recorded pIC50.
5.12

Reported pIC50, compound N#Cc1ccc(NC(=[Se])NCc2ccco2)cc1 [Compound 1e] : ____
5.22

Continuing:
Can you share its pIC50? I mean this compound: N#Cc1ccc(NC(=[Se])NC23CC4CC(CC(C4)C2)C3)cc1 [Compound 6e, N´-Adamanty-N-(4-cyanophenyl)selenourea]
5.63

Entry Clc1ccc(NC(=[Se])NCc2nccs2)cc1 [Compound 2d] has what pIC50?
5.28

----------
Tested on: HTB-54 cells (lung adenocarcinoma)
assay.comment: MTT cell viability assay, HTB-54
Assay type: cell-based, human
condition.summary: Homo sapiens; HTB-54, 10 µM, 48 h, MTT; read-out: cell viability, percentage of live cells
Consider the following molecules and their measured viability at 10 µM readings.
Kindly answer with a numeric value in %, unit omitted.

May I ask what viability at 10 µM has been recorded for N#Cc1ccc(NC(=[Se])NC23CC4CC(CC(C4)C2)C3)cc1 [Compound 6e, N´-Adamanty-N-(4-cyanophenyl)selenourea] ?
34

Which viability at 10 µM is listed for COc1ccc(NC(=[Se])Nc2ccc3oc(=O)ccc3c2)cc1 [Compound 3c] ?
61.6

Attention now shifts to the item below.
Look up viability at 10 µM for this molecule: CCCCNC(=[Se])Nc1ccc(C#N)cc1 [Compound 4e]
74.6

----------
Tested on: HTB-54 cells (lung adenocarcinoma)
assay.comment: MTT cell viability assay, HTB-54
Assay type: cell-based, human
condition.summary: Homo sapiens; HTB-54, 10 µM, 48 h, MTT; read-out: cell viability, percentage of live cells
recorded.metric: viability at 10 µM (%)
Output spec: scalar in %, unitless text.

Reference set, count: 10
For the molecule [Se]=C(NCc1nccs1)Nc1ccccc1 [Compound 2a] , what viability at 10 µM is on record?
51.1

Give its viability at 10 µM value. Item: O=c1ccc2cc(NC(=[Se])Nc3ccc(Cl)cc3)ccc2o1 [Compound 3d]
70.1

Please report the recorded viability at 10 µM for Cc1ccc(NC(=[Se])NCc2nccs2)cc1 [Compound 2b] .
53.1

Name the reported viability at 10 µM value associated with the molecule CCCCNC(=[Se])Nc1ccc(Cl)cc1 [Compound 4d]
58.1

Given Clc1ccc(NC(=[Se])NCc2nccs2)cc1 [Compound 2d] , state its recorded viability at 10 µM.
45.8

Given the molecule N#Cc1ccc(NC(=[Se])NCc2nccs2)cc1 [Compound 2e] , what is its reported viability at 10 µM?
66.6

Consider the molecule COc1ccc(NC(=[Se])NCc2nccs2)cc1 [Compound 2c] and give its measured viability at 10 µM.
58.5

Tell me the measured viability at 10 µM of Clc1ccc(NC(=[Se])NCc2ccco2)cc1 [Compound 1d] , please.
52.2

Any idea what its viability at 10 µM is? The molecule is N#Cc1ccc(NC(=[Se])NCc2ccco2)cc1 [Compound 1e]
35.7

Consider the molecule shown here: Cc1ccc(NC(=[Se])NCc2ccco2)cc1 [Compound 1b] What is its recorded viability at 10 µM?
52.1

Further cases:
Request the reported viability at 10 µM associated with COc1ccc(NC(=[Se])NCc2ccco2)cc1 [Compound 1c]
55.7

Endpoint output: viability at 10 µM of CCCCCCNC(=[Se])Nc1ccc(C#N)cc1 [Compound 5e, N-hexyl-N´-(4-cyanophenyl)selenourea] . Value?
80.2

May I ask what viability at 10 µM has been recorded for CCCCCCNC(=[Se])Nc1ccc(Cl)cc1 [Compound 5d] ?
81.4

Given CCCCCCNC(=[Se])Nc1ccc(OC)cc1 [Compound 5c] , state its recorded viability at 10 µM.
70.4

Which viability at 10 µM reading was recorded for the molecule Cc1ccc(NC(=[Se])Nc2ccc3oc(=O)ccc3c2)cc1 [Compound 3b] ?
62.9

What does the data say about its viability at 10 µM? Entry: O=c1ccc2cc(NC(=[Se])Nc3ccccc3)ccc2o1 [Compound 3a]
66

Given COc1ccc(NC(=[Se])NC23CC4CC(CC(C4)C2)C3)cc1 [Compound 6c] , state its recorded viability at 10 µM.
33.1

// lookup viability at 10 µM for [Se]=C(NCc1ccco1)Nc1ccccc1 [Compound 1a]
63.5

Tell me the measured viability at 10 µM of N#Cc1ccc(NC(=[Se])Nc2ccc3oc(=O)ccc3c2)cc1 [Compound 3e] , please.
60.8

Which viability at 10 µM is listed for Cc1ccc(NC(=[Se])NC23CC4CC(CC(C4)C2)C3)cc1 [Compound 6b] ?
44.2

# query: viability at 10 µM of entry Clc1ccc(NC(=[Se])NC23CC4CC(CC(C4)C2)C3)cc1 [Compound 6d]
22.9
